# Tested on: sonic hedgehog pathway
# experimental.details: Human hedgehog reporter assay Daoy-GliLuc (DGL)
# Format: cell-based
# condition.description: Daoy human medulloblastoma cells, gli-luciferase reporter; read-out: Daoy Avg. EC50
# Excerpt: Mouse (TM3: mouse Leydig cells; S12: mouse embryonic mesenchymal cells) and human (Daoy: human medulloblastoma cell; HepM: human embryonic palatal mesenchymal cell) cell lines are used to screen small molecules for their ability to modulate the activity of the sonic hedgehog pathway (Table 1, Table 2, and Table 3). […]
Structures can show the parent of a compound that is named as a salt.
EC50 values for the molecules below.

molecule	target.desc	EC50
CN[C@H]1CC[C@H](N(Cc2cc(-c3cnc(N)nc3)ccc2OC)C(=O)c2sc3ccccc3c2Cl)CC1 [Compound 323, dihydrochloride]	sonic hedgehog pathway	< 50 nM
COc1ccc(-c2cncc(F)c2)cc1CN(C(=O)c1sc2c(F)ccc(F)c2c1Cl)[C@H]1CC[C@H](N)CC1 [Compound 416]	sonic hedgehog pathway	50 to 250 nM
CNC1CCC(N(Cc2cc(-c3ccncc3)ccc2O)C(=O)c2sc3c(F)ccc(F)c3c2Cl)CC1 (stereo not shown) [Compound 368, dihydrochloride]	sonic hedgehog pathway	< 50 nM

// returns reported EC50 for input CNC1CCC(N(Cc2cc(-c3ccc(C(C)=O)cc3)ccc2OC)C(=O)c2sc3c(F)ccc(F)c3c2Cl)CC1 (stereo not shown) [Compound 332, hydrochloride]
< 50 nM

// returns reported EC50 for input CNc1ncc(-c2ccc(OC)c(CN(C(=O)c3sc4ccccc4c3Cl)[C@H]3CC[C@H](NC)CC3)c2)cn1 [Compound 322, dihydrochloride]
50 to 250 nM

// returns reported EC50 for input CN[C@H]1CC[C@H](N(Cc2cc(-c3ccc(F)cc3)ccc2OC)C(=O)c2sc3ccccc3c2Cl)CC1 [Compound 314, hydrochloride]
< 50 nM

// returns reported EC50 for input CCOc1ccc(-c2ccc(C(C)=O)cc2)cc1CN(C(=O)c1sc2ccccc2c1Cl)C1CCC(NC)CC1 (stereo not shown) [Compound 311, hydrochloride]
< 50 nM

// returns reported EC50 for input CCOc1ccc(-c2ccccc2)cc1CN(C(=O)c1sc2ccccc2c1Cl)C1CCC(NC)CC1 (stereo not shown) [Compound 313, hydrochloride]
< 50 nM

// returns reported EC50 for input COc1ccc(-c2cccnc2)cc1CN(C(=O)c1sc2cccc(F)c2c1Cl)[C@H]1CC[C@H](N)CC1 [Compound 410]
< 50 nM

// returns reported EC50 for input CNC1CCC(N(Cc2cc(-c3ccc(N)nc3)ccc2OC)C(=O)c2sc3c(F)ccc(F)c3c2Cl)CC1 (stereo not shown) [Compound 352 (R18), dihydrochloride]
< 50 nM

---

# Test system: sonic hedgehog pathway
# experimental.details: Hedgehog reporter assay (gli-luciferase) in S12 cells
# Assay type: cell-based
# condition.description: S12 mouse embryonic mesenchymal cells, read-out: S12 Avg. EC50
Structures can show the parent of a compound that is named as a salt.
EC50 values for the compounds below.

Some entries whose results are on file:
compound	target.desc	EC50
CNC1CCC(N(Cc2cc(-c3ccc(CO)cc3)ccc2OC)C(=O)c2sc3ccccc3c2Cl)CC1 (stereo not drawn) [Compound 329, hydrochloride]	sonic hedgehog pathway	< 50 nM
CN[C@H]1CC[C@H](N(Cc2cc(-c3ccc(N)nc3)ccc2OC)C(=O)c2sc3cccc(F)c3c2Cl)CC1 [362 (R13), dihydrochloride]	sonic hedgehog pathway	< 50 nM

Now turn to the next compound.
// returns reported EC50 for input CNC1CCC(N(Cc2cc(-c3ccc(C(=O)N(C)C)cc3)ccc2OC)C(=O)c2sc3c(F)ccc(F)c3c2Cl)CC1 (stereo not drawn) [Compound 333, hydrochloride]
< 50 nM
